The following compounds are listed with their measured Plant response rating (0 to 100), Crabgrass values.
Tested on: crabgrass
protocol: Test C preemergence/postemergence greenhouse plant response rating 0 to 100
Assay type: in vivo, Digitaria sanguinalis
condition_summary: Rate 16 g/ha; POSTEMERGENCE
reported_property: Plant response rating (0 to 100), Crabgrass

>>> readout_number("COC(=O)C(C)Oc1cc(-c2nn3c(c2Cl)CCCC3)c(F)cc1Cl (stereo not shown)")
0
>>> readout_number("C#CC(C)N1C(=O)COc2cc(F)c(-c3nn4c(c3Cl)CCCC4)cc21 (stereo not shown)")
20
>>> readout_number("C#CC(C)Oc1cc(-c2nn3c(c2Br)CCCC3)c(F)cc1Cl (stereo not shown)")
20
>>> readout_number("CCOC(=O)COc1cc(-c2nn3c(c2Cl)CCCC3)c(F)cc1Cl")
10
>>> readout_number("CC(C)COc1cc(-c2nn3c(c2Cl)CCCC3)c(F)cc1Cl")
0
>>> readout_number("C#CC(C)Oc1cc(-c2nn3c(c2Cl)CCCC3)c(F)cc1Cl (stereo not shown)")
20
>>> readout_number("CC(C)N1C(=O)COc2cc(F)c(-c3nn4c(c3Cl)CCCC4)cc21")
30

Provenance of the data: patent US6358885B1
